target: DRB1*0401; assay: binding to purified HLA
metric: IC50 (nM)

Consider the worked cases shown below.
AAAFFVAANTLHAAA [F4.N9.H12]	3.8
AAAYFVAANTLHAAA [Y4.N9.H12]	3.3

[A] AAAHFVAAWTLHAAA [H4.H12]
[B] AAAYFVAAFTLHAAA [Y4.F9.H12]
Query string: Which value of IC50 is smaller, the one for A or the one for B ? // respond with label for picked entry
Result string: B
(B: 1 nM, A: 2.5 nM)
